tested_on: ERα (Homo sapiens, UniProt P03372)
Construct: purchased Life Technologies, Carlsbad, CA
Sequence (P03372 whole entry): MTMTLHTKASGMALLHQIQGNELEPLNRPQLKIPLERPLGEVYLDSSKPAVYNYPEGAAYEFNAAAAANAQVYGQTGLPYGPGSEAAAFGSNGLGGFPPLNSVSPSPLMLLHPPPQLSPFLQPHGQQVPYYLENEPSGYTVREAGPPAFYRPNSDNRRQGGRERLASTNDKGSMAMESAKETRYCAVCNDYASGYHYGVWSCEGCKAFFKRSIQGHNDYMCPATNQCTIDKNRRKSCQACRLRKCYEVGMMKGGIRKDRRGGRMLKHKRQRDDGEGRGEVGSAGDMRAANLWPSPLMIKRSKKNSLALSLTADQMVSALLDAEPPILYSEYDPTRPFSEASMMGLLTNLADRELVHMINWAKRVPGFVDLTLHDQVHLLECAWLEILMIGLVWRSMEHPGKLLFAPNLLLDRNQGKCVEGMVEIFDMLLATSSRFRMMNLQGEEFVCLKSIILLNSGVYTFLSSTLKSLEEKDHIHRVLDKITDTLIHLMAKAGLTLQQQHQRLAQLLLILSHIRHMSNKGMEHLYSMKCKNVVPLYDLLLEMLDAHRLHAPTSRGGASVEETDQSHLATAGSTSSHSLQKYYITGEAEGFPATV
method: PolarScreen ER Alpha Competitor Assay (fluorescence polarisation)
Assay type: binding
stated_conditions: 25 nM ERα, 4.5 nM fluormone; read-out: ER binding pIC50 (converted)
observable: IC50

>>> df
                                   molecule  value_observed
0     COc1ccc2oc(=O)c(-c3ccc(O)c(F)c3)cc2c1         > 10 µM
1          O=c1oc2ccc(Cl)cc2cc1-c1cccc(O)c1         > 10 µM
2     COc1ccc2cc(-c3ccc(O)c(F)c3)c(=O)oc2c1        0.708 µM
3  O=c1oc2ccccc2cc1-c1cccc(O)c1 [Compound 3, 3–(3-hydroxyphenyl)-2H-chromen-2-one]         > 10 µM
4           O=c1oc2ccc(O)cc2cc1-c1ccc(O)cc1         > 10 µM
5          COc1ccc(-c2cc3cccc(O)c3oc2=O)cc1         > 10 µM
